Task for the reader: assign each of the following binders its reported EC50 (FLIPR).
Biological target: human NMUR2 (human, UniProt Q9GZQ4 1-415)
Sequence (Q9GZQ4 whole entry): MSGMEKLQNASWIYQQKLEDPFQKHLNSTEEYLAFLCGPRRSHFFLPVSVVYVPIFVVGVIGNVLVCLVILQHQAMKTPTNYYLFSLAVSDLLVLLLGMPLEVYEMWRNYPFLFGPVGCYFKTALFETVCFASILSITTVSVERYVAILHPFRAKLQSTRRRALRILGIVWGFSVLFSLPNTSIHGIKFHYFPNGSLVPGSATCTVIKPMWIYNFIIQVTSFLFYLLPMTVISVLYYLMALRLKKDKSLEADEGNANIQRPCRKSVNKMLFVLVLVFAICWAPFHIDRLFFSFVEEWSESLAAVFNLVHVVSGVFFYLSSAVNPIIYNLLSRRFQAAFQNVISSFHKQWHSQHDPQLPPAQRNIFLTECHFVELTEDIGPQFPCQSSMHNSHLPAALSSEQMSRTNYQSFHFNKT
Test: cell-based or functional assay
Starred links: 1 amine or outer side, 2 acyl side, 3 side chain; linkers in the order of their positions; H or OH if unused. Non-standard residues stand in square brackets, D forms with d. No end group written: not given here. *: point of attachment. Ttds = 1-amino-4,7,10-trioxa-13-tridecanamine succinimic acid spacer, O=C(CCC(=O)[*:2])NCCCOCCOCCOCCCN[*:1]; (PEG)2 40 kDa = branched PEG of 40 kDa linked via the Cys side-chain thiol (code C2 = Cys(PEG)2 40 kDa); Succinimide(1-Et,3-yl) = CCN1C(=O)CC(*)C1=O; Palmitoyl = CCCCCCCCCCCCCCCC(=O)*
Numbers only, in nM.

Ac-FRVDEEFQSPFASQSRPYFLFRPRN-NH2 [NMU5]    2.5

The following binders each have a reported value; give each one's EC50 (FLIPR).
1. Ac-C((PEG)2 40 kDa)[Ttds]FLFRPRN-NH2 [NMU16]
2. Palmitoyl-C((PEG)2 40 kDa)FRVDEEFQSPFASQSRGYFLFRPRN-NH2 [NMU25]
3. GYFLFRPRN-NH2 [NMU3]
4. Ac-C((PEG)2 40 kDa)ASQSRGYFLFRPRN-NH2 [NMU18]
5. Ac-C(Succinimide(1-Et,3-yl))C(Succinimide(1-Et,3-yl))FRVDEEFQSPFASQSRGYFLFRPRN-NH2 [NMU22]
6. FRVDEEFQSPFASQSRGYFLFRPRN-NH2 (not fully specified (N-terminus)) [NMU1]
7. Ac-C((PEG)2 40 kDa)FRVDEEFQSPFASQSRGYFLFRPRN-NH2 [NMU12]

Outgoing:
1. 1000
2. 44.1
3. 1.9
4. 65.7
5. 6.5
6. 64.8
7. 119

# credit: patent US20070244048A1
